# Lookup of reported EC50 keyed by entry
# Tested on: human somatostatin receptor subtype 2 (Homo sapiens, UniProt P30874)
# Construct: expressed in transfected cells
# Sequence (P30874 whole entry): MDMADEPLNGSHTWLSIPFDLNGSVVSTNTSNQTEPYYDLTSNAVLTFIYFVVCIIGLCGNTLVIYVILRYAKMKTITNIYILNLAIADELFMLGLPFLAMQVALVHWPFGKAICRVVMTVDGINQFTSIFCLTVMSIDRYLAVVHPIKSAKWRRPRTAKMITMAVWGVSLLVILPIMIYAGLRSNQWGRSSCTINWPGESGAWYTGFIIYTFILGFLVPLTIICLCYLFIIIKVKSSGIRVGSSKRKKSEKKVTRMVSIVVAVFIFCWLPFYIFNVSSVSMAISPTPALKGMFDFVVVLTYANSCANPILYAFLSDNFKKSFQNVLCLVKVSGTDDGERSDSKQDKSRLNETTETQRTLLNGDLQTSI
# Run description: Functional assay for SSTR2 agonists (HTRF cAMP)
# Assay type: cell-based
# Experimental parameters: CHO-K1 cells stably expressing human SST2; NKH477-stimulated cAMP; 20 min at 37 C; read-out: hSST2 cAMP Avg EC50
Attribute measured: EC50

| Chemical smiles | Result |
| --- | --- |
| CC[C@H](C)[C@@H]([C@@H](CC(=O)N1CCC[C@H]1[C@H](OC)[C@@H](C)C(=O)N[C@H](C)[C@@H](O)c1ccccc1)OC)N(C)C(=O)[C@@H](NC(=O)[C@H](C(C)C)N(C)C(=O)OCc1ccc(NC(=O)[C@H](CCCNC(N)=O)NC(=O)[C@@H](NC(=O)CCOCCC(=O)NCCNc2ncc(-c3cc(C)cc(F)c3)c(N3CCC(N)CC3)c2-c2nc3ccc(Cl)cc3[nH]2)C(C)C)c(O[C@@H]2O[C@H](C(=O)N(C)C)[C@@H](O)[C@H](O)[C@H]2O)c1)C(C)C | 0.093 nM |
| CC[C@H](C)[C@@H]([C@@H](CC(=O)N1CCC[C@H]1[C@H](OC)[C@@H](C)C(=O)N[C@H](C)[C@@H](O)c1ccccc1)OC)N(C)C(=O)[C@@H](NC(=O)[C@H](C(C)C)N(C)C(=O)OCc1ccc(NC(=O)[C@H](CCCNC(N)=O)NC(=O)[C@@H](NC(=O)CCOCCC(=O)NCCNc2ncc(-c3cc(C)cc(F)c3)c(N3CCC(N)CC3)c2-c2nc3ccc(Cl)cc3[nH]2)C(C)C)c(O[C@@H]2O[C@H](C(=O)N(C)CCOCCC(=O)O)[C@@H](O)[C@H](O)[C@H]2O)c1)C(C)C | 0.33 nM |
| CC[C@H](C)[C@@H]([C@@H](CC(=O)N1CCC[C@H]1[C@H](OC)[C@@H](C)C(=O)N[C@H](C)[C@@H](O)c1ccccc1)OC)N(C)C(=O)[C@@H](NC(=O)[C@H](C(C)C)N(C)C(=O)OCc1ccc(NC(=O)[C@H](CCCNC(N)=O)NC(=O)[C@@H](NC(=O)CCCC(=O)N(C)CC(=O)NCCNc2ncc(-c3cc(C)cc(F)c3)c(N3CCC(N)CC3)c2-c2nc3ccc(Cl)cc3[nH]2)C(C)C)c(O[C@@H]2O[C@H](C(=O)O)[C@@H](O)[C@H](O)[C@H]2O)c1)C(C)C | 0.81 nM |
| CC[C@H](C)[C@@H]([C@@H](CC(=O)N1CCC[C@H]1[C@H](OC)[C@@H](C)C(=O)N[C@H](C)[C@@H](O)c1ccccc1)OC)N(C)C(=O)[C@@H](NC(=O)[C@H](C(C)C)N(C)C(=O)OCc1ccc(NC(=O)[C@H](CCCNC(N)=O)NC(=O)[C@@H](NC(=O)CCOCCC(=O)NCCNc2ncc(-c3cc(C)cc(F)c3)c(N3CCC(N)CC3)c2-c2nc3ccc(Cl)cc3[nH]2)C(C)C)c(O[C@@H]2O[C@H](C(=O)NCCC(=O)O)[C@@H](O)[C@H](O)[C@H]2O)c1)C(C)C | 0.14 nM |
| CC[C@H](C)[C@@H]([C@@H](CC(=O)N1CCC[C@H]1[C@H](OC)[C@@H](C)C(=O)N[C@H](C)[C@@H](O)c1ccccc1)OC)N(C)C(=O)[C@@H](NC(=O)[C@H](C(C)C)N(C)C(=O)OCc1ccc(NC(=O)[C@H](CCCNC(N)=O)NC(=O)[C@@H](NC(=O)C2(NC(=O)CCCC(=O)N(C)CC(=O)NCCNc3ncc(-c4cc(C)cc(F)c4)c(N4CCC(N)CC4)c3-c3nc4ccc(Cl)cc4[nH]3)CCN(CC(=O)O)CC2)C(C)C)cc1)C(C)C | 0.24 nM |
